B1: ANKRD40 (parent)
chain: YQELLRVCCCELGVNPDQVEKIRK

- Variants of: B1
- ASSAY_INFO: protein stability index of a GFP-peptide fusion (GPS, HEK-293T) (PSI 1-6); higher = more stable;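 note: lentivirally expressed fusions sorted by FACS into six bins by GFP to DsRed ratio, PSI derived from sequencing read proportions per bin multiplied by bin number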
- MEASUREMENT_SETUP: c terminus: a fixed tail appended
Note to self: values exactly at 2 are Y. So protein stability index at or above 2 is Y, below is N.

As a guide, the following entries are already answered.
MUT	CLASS_ASSIGNMENT
L5H	Y
K24F	Y
C10R	Y
L12P	Y
N15E	Y
V19A	N

## Task For this variant, is measured protein stability index 2 or higher? K24H
## Result N

## Task For this variant, is measured protein stability index 2 or higher? V19K
## Result Y

## Task For this variant, is measured protein stability index 2 or higher? R6W
## Result N

## Task For this variant, is measured protein stability index 2 or higher? R23N
## Result N

## Task For this variant, is measured protein stability index 2 or higher? V19F
## Result Y

## Task For this variant, is measured protein stability index 2 or higher? Q18A
## Result N

## Task For this variant, is measured protein stability index 2 or higher? C8R
## Result Y
